test-system: T1, His-tagged CEACAM1 (human, UniProt P13688 35-428)
T1 construct: 45 kDa SPR analyte; also called CEACAM1-HIS; CEACAM1 analyte
T1 sequence: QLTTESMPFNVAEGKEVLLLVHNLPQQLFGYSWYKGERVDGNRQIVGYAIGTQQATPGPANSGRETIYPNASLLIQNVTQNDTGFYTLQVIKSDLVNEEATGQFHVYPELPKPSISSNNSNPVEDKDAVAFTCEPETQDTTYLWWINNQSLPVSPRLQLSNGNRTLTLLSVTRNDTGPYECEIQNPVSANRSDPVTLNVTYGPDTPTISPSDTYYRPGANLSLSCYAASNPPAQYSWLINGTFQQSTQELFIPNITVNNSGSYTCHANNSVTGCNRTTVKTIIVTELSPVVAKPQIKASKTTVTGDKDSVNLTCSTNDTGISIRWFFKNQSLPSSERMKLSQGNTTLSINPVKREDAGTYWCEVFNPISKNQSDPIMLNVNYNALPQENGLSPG
assay-details: SPR single-cycle, purified IgG captured
assay-readout: koff (s⁻¹)
The reply should contain only the number, in s⁻¹.

Worked examples follow.
Fill in koff for record 8H3_9B3/CP08F05 (antibody, IgG4, V domains shown, IgG4 (S241P), kappa) VH: EVQLLESGGGLVQPGGSLRLSCAASGFTFNAHAISWVRQAPGKGLEWVATISSGGTYTYYPDSVKGRFTISRDNSKNTLYLQMNSLKAEDTAMYYCARHDFDYFPYWFAHWGQGTLVTVSS VL: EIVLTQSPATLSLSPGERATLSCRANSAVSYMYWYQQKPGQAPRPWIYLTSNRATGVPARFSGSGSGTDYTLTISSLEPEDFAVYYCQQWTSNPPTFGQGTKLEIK
0.0056

Write down koff measured for item 8H3_9B3/CP08E05 (antibody, IgG4, V domains shown, IgG4 (S241P), kappa) VH: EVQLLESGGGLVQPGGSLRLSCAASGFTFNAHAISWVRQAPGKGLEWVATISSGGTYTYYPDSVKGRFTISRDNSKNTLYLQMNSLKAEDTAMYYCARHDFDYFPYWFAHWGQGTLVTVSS VL: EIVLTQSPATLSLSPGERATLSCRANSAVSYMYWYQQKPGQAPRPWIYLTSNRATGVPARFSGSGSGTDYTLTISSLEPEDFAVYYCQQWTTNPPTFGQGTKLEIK
0.0065

For the binder CP08H03/Vκ8 S29A (antibody, IgG4, V domains shown, IgG4 (S241P), kappa; also called CP08_H03/Parent VL; CP08_H03/Parental) VH: EVQLLESGGGLVQPGGSLRLSCAASGFIFSSHGMSWVRQAPGKGLEWVATISSGGTYTYYPDSVKGRFTISRDNSKNTLYLQMNSLKAEDTAMYYCARHDFDYFPYWFAHWGQGTLVTVSS VL: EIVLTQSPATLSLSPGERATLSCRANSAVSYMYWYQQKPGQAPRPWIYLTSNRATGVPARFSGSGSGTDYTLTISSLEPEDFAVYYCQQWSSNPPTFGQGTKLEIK , report koff.
0.0075

Please indicate koff recorded for 8H3_9B3/Vκ8 S29A (antibody, IgG4, V domains shown, IgG4 (S241P), kappa) VH: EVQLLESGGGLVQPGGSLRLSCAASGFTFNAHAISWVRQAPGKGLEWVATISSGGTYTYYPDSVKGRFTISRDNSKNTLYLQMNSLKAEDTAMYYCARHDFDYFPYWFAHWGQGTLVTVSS VL: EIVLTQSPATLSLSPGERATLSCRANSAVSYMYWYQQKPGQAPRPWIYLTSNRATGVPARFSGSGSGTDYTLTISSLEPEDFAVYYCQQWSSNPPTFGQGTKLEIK
0.0062

Note koff for the binder shown: CP09B03/CP08E05 (antibody, IgG4, V domains shown, IgG4 (S241P), kappa) VH: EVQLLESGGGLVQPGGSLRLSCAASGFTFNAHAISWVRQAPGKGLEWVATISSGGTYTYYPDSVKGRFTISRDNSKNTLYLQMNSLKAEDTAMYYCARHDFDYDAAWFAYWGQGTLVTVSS VL: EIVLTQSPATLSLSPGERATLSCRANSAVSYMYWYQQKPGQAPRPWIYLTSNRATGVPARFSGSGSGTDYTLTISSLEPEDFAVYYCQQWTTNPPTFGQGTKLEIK
0.0096

More entries:
Quickly give me recorded koff for 9B3_9E5/CP08E05 (antibody, IgG4, V domains shown, IgG4 (S241P), kappa) VH: EVQLLESGGGLVQPGGSLRLSCAASGFTFNAHAISWVRQAPGKGLEWVATISSGGTYTYYPDSVKGRFTISRDNSKNTLYLQMNSLKAEDTAMYYCARHGFDYDAAWFAYWGQGTLVTVSS VL: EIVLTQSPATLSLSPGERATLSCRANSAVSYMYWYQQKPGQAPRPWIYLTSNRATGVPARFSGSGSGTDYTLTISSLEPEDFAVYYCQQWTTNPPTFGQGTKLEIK
0.007

Output measured koff for this item: CP08H03/CP08E05 (antibody, IgG4, V domains shown, IgG4 (S241P), kappa) VH: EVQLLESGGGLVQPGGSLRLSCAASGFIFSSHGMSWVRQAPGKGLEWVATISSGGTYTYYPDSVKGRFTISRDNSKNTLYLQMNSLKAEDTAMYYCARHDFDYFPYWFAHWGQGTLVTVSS VL: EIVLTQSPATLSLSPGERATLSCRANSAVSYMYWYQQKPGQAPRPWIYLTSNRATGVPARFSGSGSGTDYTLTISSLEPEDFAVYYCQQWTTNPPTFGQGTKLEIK
0.008

Fill in reported koff for this entry: CP09C02/CP08F05 (antibody, IgG4, V domains shown, IgG4 (S241P), kappa) VH: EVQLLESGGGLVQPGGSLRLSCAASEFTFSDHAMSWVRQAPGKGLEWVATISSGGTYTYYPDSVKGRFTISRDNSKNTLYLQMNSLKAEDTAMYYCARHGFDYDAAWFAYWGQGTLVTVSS VL: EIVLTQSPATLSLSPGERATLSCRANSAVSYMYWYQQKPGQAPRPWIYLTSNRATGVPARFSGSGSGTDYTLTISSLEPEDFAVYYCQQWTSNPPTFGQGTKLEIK
0.01

Output koff of CP09C02/CP08E05 (antibody, IgG4, V domains shown, IgG4 (S241P), kappa) VH: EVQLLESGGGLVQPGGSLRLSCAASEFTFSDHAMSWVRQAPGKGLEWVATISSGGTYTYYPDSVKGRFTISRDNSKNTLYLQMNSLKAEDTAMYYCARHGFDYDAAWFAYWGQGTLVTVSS VL: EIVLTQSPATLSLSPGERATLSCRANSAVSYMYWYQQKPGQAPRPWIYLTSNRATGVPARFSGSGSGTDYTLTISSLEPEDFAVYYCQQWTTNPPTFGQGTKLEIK
0.007
